Recorded growth by entry
Test system: SNB-19 CNS
Experiment: NCI-60 one-dose screen, 48 h (100 = growth as untreated, 0 = no growth, -100 = all killed)
Conditions: 10 µM unless noted
Protocol: Growth inhibition of the SNB-19 human tumor cell line is measured as a screen for anti-cancer activity. Cells are grown in 96 well plates and exposed to the test compound for 48 hours. Compounds are tested at a single concentration, which is 10^-5 M for most compounds. The reported endpoint is percent growth (GI% or GIPRCNT), where numbers from 0 - 100% represent growth inhibition, and numbers from -100% - 0 represent cell death. For example, a value of 40 represents 60% growth inhibition. […]
About 83,000 compounds went through this panel and 20% of them were active in at least one assay; those are over-represented in the sample as a whole. Activity calls are given as the source filed them. The calls were made as follows: active = growth percent below 10; inactive = the rest.

[
  {
    "compound": "NS(=O)(=O)c1ccc(-n2ncc(NC(=O)Nc3ccc(S(=O)(=O)Nc4nccs4)cc3)c2-c2ccccc2)cc1",
    "growth": "103% (inactive)"
  },
  {
    "compound": "O=[N+]([O-])c1cccc(CN(Cc2cccc([N+](=O)[O-])c2O)c2ccccc2)c1O",
    "growth": "92% (inactive)"
  },
  {
    "compound": "COc1cc(-c2csc(NC(=O)Nc3cc(Cl)cc(Cl)c3)n2)cc(OC)c1OC",
    "growth": "9% (active)"
  },
  {
    "compound": "C/C(=N\\NC(=O)c1ccncc1)c1ccc(N)cc1",
    "growth": "94.6% (inactive)"
  },
  {
    "compound": "COc1ccc(Nc2cc(NC(=O)CNc3cc(OC)c(Cl)c(OC)c3Cl)ncn2)cc1",
    "growth": "96.8% (inactive)"
  },
  {
    "compound": "O=C1CC(c2ccc(O)c(O)c2)Oc2cc(O)c([C@@H]3O[C@H](CO)[C@@H](O)[C@H](O)[C@H]3O)c(O)c21 (stereo not given in full)",
    "growth": "102% (inactive)"
  },
  {
    "compound": "COc1ccc(C(=O)c2cc(OC)c(C)c(OC)c2)cc1OC(=O)CCl",
    "growth": "28.4% (inactive)"
  },
  {
    "compound": "COc1ccc(-c2nc(C#N)c(NCC(c3ccc(Cl)cc3)N3CCCCC3)o2)cc1 (stereo not given)",
    "growth": "113% (inactive)"
  },
  {
    "compound": "S=C(Nc1ccc(Cl)cc1)c1ccccn1",
    "growth": "92.2% (inactive)"
  },
  {
    "compound": "COC(=O)c1cncc(C(=O)Nc2ccc(-n3cnc4ccccc43)cc2)c1",
    "growth": "99.1% (inactive)"
  }
]

* * *

tested on: LOX IMVI melanoma; experiment: NCI-60 one-dose screen, 48 h (100 = growth as untreated, 0 = no growth, -100 = all killed); settings: 10 µM unless noted
The panel holds about 83,000 compounds, 20% with a hit somewhere; the sample as a whole holds those more often.
Kind request: treat 90% as inclusive, so growth at 90% or higher is YES, anything lower is NO.

[
  {
    "molecule": "CN1CCN(/C=C2\\CC(C(=O)NCc3ccc(Cl)cc3Cl)NC2=O)CC1 (stereo not drawn)",
    "subject-of-test": "LOX IMVI melanoma",
    "assigned-class": "YES"
  },
  {
    "molecule": "CC(=O)c1ccc(NC(=O)CSc2nnc(-c3cc(-c4ccc(Cl)cc4)nc4ccccc34)o2)cc1",
    "subject-of-test": "LOX IMVI melanoma",
    "assigned-class": "NO"
  },
  {
    "molecule": "C#Cc1ccccc1NC(=O)c1sc2nc3c(cc2c1N)CCCCC3",
    "subject-of-test": "LOX IMVI melanoma",
    "assigned-class": "YES"
  },
  {
    "molecule": "CN(C)CCCn1c2c(c3cc(-c4ccco4)ccc3c1=O)C(=O)c1ccccc1-2",
    "subject-of-test": "LOX IMVI melanoma",
    "assigned-class": "NO"
  },
  {
    "molecule": "CCO/C=N/S(=O)(=O)c1cc2c(cc1Cl)NC=NS2(=O)=O",
    "subject-of-test": "LOX IMVI melanoma",
    "assigned-class": "YES"
  },
  {
    "molecule": "C=C1C(=O)O[C@H]2[C@H]1CC/C(COC(=O)CCCCCCCCC(=O)OC/C1=C/CC[C@@]3(C)O[C@H]3[C@H]3OC(=O)C(=C)[C@@H]3CC1)=C\\CC[C@@]1(C)O[C@@H]21",
    "subject-of-test": "LOX IMVI melanoma",
    "assigned-class": "NO"
  },
  {
    "molecule": "Cn1cc(-c2ccc3c(c2)ncn3-c2ccc(CC(=O)Nc3cc(C(C)(C)C)on3)cc2)cn1",
    "subject-of-test": "LOX IMVI melanoma",
    "assigned-class": "NO"
  },
  {
    "molecule": "CCCn1cc(/C=N\\N=C2\\C(=O)Nc3ccc(C)cc32)c2ccccc21",
    "subject-of-test": "LOX IMVI melanoma",
    "assigned-class": "NO"
  },
  {
    "molecule": "COc1ccc2nc(-c3ccc(OC)c(OC)c3)cc(-c3nnc(SCC(=O)Nc4ccc(/C(C)=N\\O)cc4)n3-c3ccccc3)c2c1",
    "subject-of-test": "LOX IMVI melanoma",
    "assigned-class": "NO"
  },
  {
    "molecule": "O=c1[nH]nc(-c2ccc(Br)cc2)c2sc(NC(=S)Nc3ccc(Cl)cc3)nc12",
    "subject-of-test": "LOX IMVI melanoma",
    "assigned-class": "NO"
  },
  {
    "molecule": "COc1ccc2c(c1)Oc1nc(N)c(C#N)c(N)c1C2Sc1ccc(SC)cc1 (stereo not drawn)",
    "subject-of-test": "LOX IMVI melanoma",
    "assigned-class": "NO"
  },
  {
    "molecule": "O=c1[nH]c2ccccc2cc1-c1nc2ccncc2[nH]1",
    "subject-of-test": "LOX IMVI melanoma",
    "assigned-class": "NO"
  },
  {
    "molecule": "CC(=O)OCC1SC(OC(C)=O)C(NC(=O)/C=C/CCl)C(OC(C)=O)C1OC(C)=O (stereo not drawn)",
    "subject-of-test": "LOX IMVI melanoma",
    "assigned-class": "YES"
  },
  {
    "molecule": "CN(C)C(CNc1oc(-c2cccc3ccccc23)nc1C#N)c1ccco1 (stereo not drawn)",
    "subject-of-test": "LOX IMVI melanoma",
    "assigned-class": "YES"
  }
]

* * *

system: DU-145 prostate; assay: NCI-60 one-dose screen, 48 h (100 = growth as untreated, 0 = no growth, -100 = all killed); details: 10 µM unless noted
This is part of a sample that, as a whole, favours compounds with a hit. Of some 83,000 tested, about 20% had one in any assay.
// thresholds for growth classes: lower band = under 10%, central band = from 10% up to 90%, upper band = 90% and over

[
  {
    "compound": "COc1ccc(/C=C/C(=O)/C=C(/C=C/c2ccc(OC)c(OC)c2)OB(F)F)cc1OC",
    "assigned-class": "central band"
  },
  {
    "compound": "COc1ccc([C@H]2[C@@H](F)C(=O)N2c2cc(OC)c(OC)c(OC)c2)cc1F",
    "assigned-class": "lower band"
  },
  {
    "compound": "O=c1c2ccccc2oc2ccc(OCCCCCN3CCCCCC3)cc12",
    "assigned-class": "upper band"
  },
  {
    "compound": "CCN1CCN(c2ccc(NC(=O)Nc3nc4ccc(-c5ccccc5OC)cc4s3)cc2)CC1",
    "assigned-class": "lower band"
  },
  {
    "compound": "COCCOCCOCc1n(Cc2ccc3ccccc3c2)c2ccccc2[n+]1Cc1ccc2ccccc2c1",
    "assigned-class": "central band"
  },
  {
    "compound": "C[C@H]1[C@H](C)CC[C@]2(C(=O)OCCOCCOCC[P+](c3ccccc3)(c3ccccc3)c3ccccc3)CC[C@]3(C)C(=CC[C@@H]4[C@@]5(C)CC[C@H](OC(=O)C(Cl)Cl)C(C)(C)[C@@H]5CC[C@]43C)[C@H]12",
    "assigned-class": "central band"
  },
  {
    "compound": "CC1(c2ccccc2Cl)NC(=O)NC1=O (stereo not drawn)",
    "assigned-class": "upper band"
  },
  {
    "compound": "OCCNc1nc(NCCO)nc(Nc2ccc(C3=NN(c4cc(Cl)cc(Cl)c4)C(c4ccc(C(F)(F)F)cc4)C3)cc2)n1 (stereo not drawn)",
    "assigned-class": "central band"
  },
  {
    "compound": "O=C(O)CCNC1CCCCC1",
    "assigned-class": "upper band"
  },
  {
    "compound": "CCOc1ccccc1C(=O)/C=C/c1cc2ccccc2[nH]c1=O",
    "assigned-class": "lower band"
  },
  {
    "compound": "N#Cc1c(-c2ccc(F)cc2)nc(N=Nc2c(O)[nH]c3ccccc23)nc1N1CCOCC1",
    "assigned-class": "central band"
  },
  {
    "compound": "CCn1cc(C(=O)O)c(=O)c2cc(F)c(N3CCN(CC(=O)Nc4ccc(/C(C)=N/OC)cc4)CC3)cc21",
    "assigned-class": "upper band"
  },
  {
    "compound": "CNCc1cccc2c1OCCOCCOCCN(CCN1CCOCC1)S(=O)(=O)c1ccc(cc1)-c1cnc(N)c(n1)C(=O)N2",
    "assigned-class": "central band"
  },
  {
    "compound": "Nc1cccc(C(=O)Nc2ccc3c(O)c(N=Nc4ccc(N=Nc5ccc(S(=O)(=O)O)cc5)cc4)c(S(=O)(=O)O)cc3c2)c1",
    "assigned-class": "upper band"
  },
  {
    "compound": "C=C1C(=O)O[C@H]2[C@H]1CC/C(COC(=O)c1cccnc1N)=C\\CC[C@@]1(C)O[C@@H]21",
    "assigned-class": "central band"
  },
  {
    "compound": "COc1ccc(-c2[nH]c3ccccc3c2C=C(C#N)C#N)cc1",
    "assigned-class": "lower band"
  },
  {
    "compound": "NS(=O)(=O)c1ccc(C2C3=C(CCCC3=O)OC3=C2C(=O)c2ccccc2C3=O)cc1 (stereo not drawn)",
    "assigned-class": "lower band"
  }
]
